Tested Target: SARS-CoV-2 nsp13 (Severe acute respiratory syndrome coronavirus 2)
Assay Notes: SARS-CoV-2 nsp13 ATPase-associated activity (Biomol Green, BSA-TCEP)
Type: biochemical
Study Conditions: measured at 30 µM; read-out: Percentage of enzymatic residual activity (ATPase)
Experimental Readout: remaining activity at 30 µM
Just the number plus its unit, please.

Consider the following illustrative entries.
# Smiles String, Tested Target, remaining activity at 30 µM
records = [
    ("CCCCn1cc(/C=C/C(=O)/C=C(\\O)C(=O)O)c2ccccc21", "SARS-CoV-2 nsp13 (Severe acute respiratory syndrome coronavirus 2)", "100%"),
    ("C/C=C/Cn1cc(/C=C/C(=O)/C=C(\\O)C(=O)O)c2ccccc21", "SARS-CoV-2 nsp13 (Severe acute respiratory syndrome coronavirus 2)", "70%"),
    ("CC(C)=Cn1cc(/C=C/C(=O)/C=C(\\O)C(=O)O)c2ccccc21", "SARS-CoV-2 nsp13 (Severe acute respiratory syndrome coronavirus 2)", "98.6%"),
]

In the following, a different compound is considered.
Q: Give its remaining activity at 30 µM value. Item: "C=C(C)Cn1cc(/C=C/C(=O)/C=C(\O)C(=O)O)c2ccccc21"
A: 68%

----------
Tested Target: SARS-CoV-2 nsp13 (Severe acute respiratory syndrome coronavirus 2)
Assay Notes: SARS-CoV-2 nsp13 ATPase-associated activity (Biomol Green, BSA-TCEP)
Type: biochemical
Study Conditions: SARS-CoV-2 nsp13-associated ATPase activity; from dose-response curves; read-out: Activity in enzyme assay IC50 ATPase BSA-TCEP
Experimental Readout: IC50 (µM)
Report the figure in µM without appending any unit label.

# Smiles String, Tested Target, IC50 / µM
rows = [
    ("O=C(/C=C(\\O)C(=O)O)/C=C/c1cn(Cc2ccc(OC(F)(F)F)cc2)c2ccccc12", "SARS-CoV-2 nsp13 (Severe acute respiratory syndrome coronavirus 2)", 6.41),
    ("CCOC(=O)/C(O)=C/C(=O)/C=C/c1cn(S(=O)(=O)c2ccccc2)c2ccccc12", "SARS-CoV-2 nsp13 (Severe acute respiratory syndrome coronavirus 2)", 7.07),
]

Q: # query: IC50 of entry "N#Cc1ccc(Cn2cc(/C=C/C(=O)/C=C(\O)C(=O)O)c3ccccc32)cc1"
A: 1.91

Q: Check "CCOC(=O)/C(O)=C/C(=O)/C=C/c1cn(Cc2ccc(C)cc2)c2ccccc12" too.
A: 2.88
